These data points were gathered from ChEMBL document CHEMBL1126980.

tested on: Caenorhabditis elegans; assay: Tested in vitro for the biological efficacy using Caenorhabditis elegans binding assay; assay type: functional, organism-based
Kindly state IC50 for each of the entries shown.
Give a bare numeral; the unit ng/mL is implied.

Look up IC50: CCC(C)[C@H]1O[C@]2(C=C[C@@H]1C)C[C@@H]1C[C@@H](C/C=C(\C)[C@@H](O[C@H]3C[C@H](OC)[C@@H](O[C@H]4C[C@H](OC)[C@H](SCCO)[C@H](C)O4)[C@H](C)O3)[C@@H](C)/C=C/C=C3\CO[C@@H]4[C@H](O)C(C)=C[C@@H](C(=O)O1)[C@]34O)O2 (stereo partly drawn)
0.784

Look up IC50: CCC(C)[C@H]1O[C@]2(C=C[C@@H]1C)C[C@@H]1C[C@@H](C/C=C(\C)[C@@H](O[C@H]3C[C@H](OC)[C@@H](O[C@H]4C[C@H](OC)[C@@H](SC)[C@H](C)O4)[C@H](C)O3)[C@@H](C)/C=C/C=C3\CO[C@@H]4[C@H](O)C(C)=C[C@@H](C(=O)O1)[C@]34O)O2 (stereo partly drawn)
0.226

Look up IC50: CCC(C)[C@H]1O[C@]2(C=C[C@@H]1C)C[C@@H]1C[C@@H](C/C=C(\C)[C@@H](O[C@H]3C[C@H](OC)[C@@H](O[C@H]4C[C@H](OC)[C@@H](SCCCO)[C@H](C)O4)[C@H](C)O3)[C@@H](C)/C=C/C=C3\CO[C@@H]4[C@H](O)C(C)=C[C@@H](C(=O)O1)[C@]34O)O2 (stereo partly drawn)
0.153

----------
tested on: Caenorhabditis elegans; assay: Tested in vitro for the biological efficacy using Caenorhabditis elegans binding assay; format: functional, organism-based
Kindly state IC50 for each of the entries shown.
Give a bare numeral; the unit ng/mL is implied.

Look up IC50: CCC(C)[C@H]1O[C@]2(CC[C@@H]1C)C[C@@H]1C[C@@H](C/C=C(\C)[C@@H](O[C@H]3C[C@H](OC)[C@@H](O[C@H]4C[C@H](OC)[C@H](S(C)(=O)=O)[C@H](C)O4)[C@H](C)O3)[C@@H](C)/C=C/C=C3\CO[C@@H]4[C@H](O)C(C)=C[C@@H](C(=O)O1)[C@]34O)O2 (some centres not stated)
0.084

Look up IC50: CCC(C)[C@H]1O[C@]2(C=C[C@@H]1C)C[C@@H]1C[C@@H](C/C=C(\C)[C@@H](O[C@H]3C[C@H](OC)[C@@H](O[C@H]4C[C@H](OC)[C@H](SCC(C)O)[C@H](C)O4)[C@H](C)O3)[C@@H](C)/C=C/C=C3\CO[C@@H]4[C@H](O)C(C)=C[C@@H](C(=O)O1)[C@]34O)O2 (some centres not stated)
0.216

----------
Kindly state IC50 for each of the entries shown.
test system: Caenorhabditis elegans; experiment: Tested in vitro for the biological efficacy using Caenorhabditis elegans binding assay; type: functional, organism-based
Give a bare numeral; the unit ng/mL is implied.

Look up IC50: CCC(C)[C@H]1O[C@]2(CC[C@@H]1C)C[C@@H]1C[C@@H](C/C=C(\C)[C@@H](O[C@H]3C[C@H](OC)[C@@H](O[C@H]4C[C@H](OC)[C@H]([S+]([O-])CCO)[C@H](C)O4)[C@H](C)O3)[C@@H](C)/C=C/C=C3\CO[C@@H]4[C@H](O)C(C)=C[C@@H](C(=O)O1)[C@]34O)O2 (some centres not stated)
0.188

Look up IC50: CCC(C)[C@H]1O[C@]2(C=C[C@@H]1C)C[C@@H]1C[C@@H](C/C=C(\C)[C@@H](O[C@H]3C[C@H](OC)[C@@H](O[C@H]4C[C@H](OC)[C@@H](S(C)(=O)=O)[C@H](C)O4)[C@H](C)O3)[C@@H](C)/C=C/C=C3\CO[C@@H]4[C@H](O)C(C)=C[C@@H](C(=O)O1)[C@]34O)O2 (some centres not stated)
0.098
